# test details: yeast growth modulation, basal conditions, primary screen, YJM789 clinical isolate, OD600, 24 h (AID 1089);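 also: growth of clinical yeast isolate S. cerevisiae YJM 789 seeded 1000 cells per well; test concentration not given here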
# condition info: S. cerevisiae YJM789 growth, higher = more signal, called active from +8 up or from −8 down
Calls of active or inactive are those of the source.
endpoint name: z-score

Here are 5 molecules together with their reported answers.
C=C/C=C/[C@H]1C(=C)CN([C@@H](Cc2ccccc2)C(=O)OC)[C@@H]1[C@H](O)Cc1ccccc1: -0.15 (inactive)
CC(C)C[C@@H]1NC(=O)[C@H]2C[C@@H](C(=O)NCCCCCCN)[C@@H](c3ccc(O)cc3)N2C1=O: -0.582 (inactive)
C=CCOC(=O)[C@@H]1[C@H]2C(=O)O[C@H](c3ccccc3)[C@H](c3ccccc3)N2[C@H](c2ccc(OCCOC(=O)[C@@H]3C[C@@H]4C(=O)N[C@@H](CCCCN(C)C)C(=O)N4[C@@H]3c3ccc(O)cc3)cc2)[C@@]12C(=O)Nc1ccc(I)cc12: 0.767 (inactive)
COCCOC(=O)N1C(=O)[C@@]2(c3ccccc31)[C@H](c1ccc(O)cc1)N1[C@H](c3ccccc3)[C@H](c3ccccc3)OC(=O)[C@H]1[C@@H]2C(=O)NC[C@H](O)c1ccccc1: 0.385 (inactive)
Cc1ccc(S[C@]2(C(=O)NCCN3CCOCC3)CC(=O)N(Cc3ccccc3)[C@@H]2c2ccc(CO)cc2I)cc1: -0.605 (inactive)

As a next step, examine the molecule that follows.
Request: What does the data say about its z-score? Entry: COc1cc2c(cc1O)C(C1CC1)N(Cc1cc3c(cc1Br)OCO3)CC2 (stereo unspecified)
Result: 0.19 (inactive)

====

Listed compounds paired with reported z-score
# tgt: Homeobox protein Hox-A13 (Mus musculus) (UniProt Q62424)
# Sequence (Q62424 whole entry, looked up): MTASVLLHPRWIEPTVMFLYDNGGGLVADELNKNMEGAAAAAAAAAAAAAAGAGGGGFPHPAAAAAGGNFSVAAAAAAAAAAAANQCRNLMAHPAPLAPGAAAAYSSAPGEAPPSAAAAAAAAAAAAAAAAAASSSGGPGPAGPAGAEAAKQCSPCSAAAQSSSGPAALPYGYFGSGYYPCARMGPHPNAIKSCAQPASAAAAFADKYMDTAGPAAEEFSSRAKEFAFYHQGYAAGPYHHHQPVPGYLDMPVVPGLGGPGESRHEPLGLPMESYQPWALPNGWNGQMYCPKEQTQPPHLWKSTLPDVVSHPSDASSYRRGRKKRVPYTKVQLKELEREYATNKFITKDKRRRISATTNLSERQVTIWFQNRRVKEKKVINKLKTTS
# test details: inhibitors of HoxA13-DNA binding, primary screen, biochemical, fluorescence polarization, labeled oligonucleotide (AID 1185)
# condition info: 15 min, higher = more signal, called active from +8 up or from −8 down
Please reply with the value in numeric form only.

Would you please look over these solved cases?
O=C1c2ccccc2[C@](Cc2ccccc2I)(C(=O)NC2CC2)[C@H](c2ccc(CO)cc2)N1Cc1ccccc1: -5.1
CN(C)CCCNC(=O)[C@@]1(c2ccc([N+](=O)[O-])cc2)CC(=O)N(C2CCCCC2)[C@@H]1c1ccc(CO)cc1: -0.842

// switching to the query compound
Request: Requested field: z-score. Item: COCCOC(=O)N1C(=O)[C@@]2(c3cc(C#CCCO)ccc31)[C@H](C(=O)N1CCc3cc(OC)c(OC)cc3C1)[C@H]1C(=O)O[C@H](c3ccccc3)[C@H](c3ccccc3)N1[C@@H]2c1ccc(O)cc1
Result: -2.01

====

# test details: S. cerevisiae RM11-1a growth modifiers, primary screen, strain RM11-1a, OD600, basal, 24 h (AID 1177);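 also: cultures grown under basal conditions with no added stressor; test concentration not given here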
# condition info: OD600, 24 h, higher = more signal, called active from +8 up or from −8 down
Cut-off -0.03 on z-score, inclusive. At or above means y; below means n.

OC([C@@H]1CC(c2ccccc2)=NO1)[C@H]1CC(c2ccccc2)=NO1 (some centres not stated): y
COC(=O)[C@@]1(Cc2ccc(F)cc2)[C@H]2c3cc(C(=O)N4CCCC4)n(Cc4ccc(C)o4)c3C[C@H]2CN1C(=O)c1ccccc1: y

Request: Please indicate if the recorded z-score for COc1ccc(C(O)C2C=CC3C(=O)N(C)C(=O)C3N2N2CCCCC2)c2ccccc12 (configuration not stated) meets or exceeds -0.03.
Result: y

Request: What do we get for CN(C)CCCNC(=O)[C@@]1(C)c2ccccc2C(=O)N(Cc2cc(F)cc(C(F)(F)F)c2)[C@H]1c1ccc(CO)cc1 ?
Result: n

Request: Item: O=C1OCCC/C=C\[C@H]2OC34C=CCN(c5ccc6ccccc6c5)C(=O)[C@H]3N(CCCCCCO)C(=O)[C@@H]4C12 (some centres not stated)
Result: n

Request: Input C=CCOC(=O)[C@@H]1[C@H]2C(=O)O[C@H](c3ccccc3)[C@H](c3ccccc3)N2[C@H](c2ccc(OCCOC(=O)[C@@H]3C[C@@H]4C(=O)N[C@@H](Cc5ccccc5)C(=O)N4[C@@H]3c3ccc(O)cc3)cc2)[C@@]12C(=O)Nc1ccc(I)cc12
Result: y

Request: Lookup CCOC(=O)C1=CCC(c2ccccc2)N(S(=O)(=O)CC[Si](C)(C)C)C1 (configuration not stated)
Result: y

====

# test details: CREB reporter modulators under forskolin, primary screen, cell-based, PC12, CRE-LacZ reporter, forskolin-stimulated (AID 1146);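 also: PC12 cells with 6xCRE LacZ reporter stimulated by forskolin 10 µM; beta-galactosidase reporter signal reflecting CREB driven transcription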
# condition info: luminescence, 4.5 h, higher = more signal, called active from +8 up or from −8 down
This section presents compounds with their documented z-score values.
Field format: numeric only.

Solved entries:
C=CCOC(=O)[C@H]1[C@@H]2C(=O)O[C@@H](c3ccccc3)[C@@H](c3ccccc3)N2[C@@H](c2ccc(OCCOC(=O)[C@H]3C[C@H]4C(=O)N[C@@H](CC(C)C)C(=O)N4[C@H]3c3ccc(O)cc3)cc2)[C@]12C(=O)Nc1ccc(I)cc12: 0.535
COc1cc2c(cc1OC)CN(C(=O)[C@H]1[C@@H]3C(=O)O[C@@H](c4ccccc4)[C@@H](c4ccccc4)N3[C@@H](c3ccc(O)cc3)[C@]13C(=O)Nc1ccc(C#CC4=CCCCC4)cc13)CC2: -0.267
O=C(C1N=C(c2ccc(OCCCO)cc2)N(c2ccccc2)O1)N1CCOCC1 (centres undefined): -0.472

Request: Tell me the measured z-score of [N-]=[N+]=Nc1ccccc1C[C@@]1(C(=O)NCCN2CCOCC2)N=C(c2ccc(OCCCO)cc2)O[C@@H]1c1ccccc1 , please.
Result: -1.61

Request: What about C=CC[C@]1(C(=O)NCCCOC)N=C(c2ccc(OCCCO)cc2)O[C@H]1c1ccccc1N=[N+]=[N-] ?
Result: -1.5

====

# test details: HepG2 cell viability effects, profiling panel, calcein-AM fluorescence, 48 h, basal (AID 1164); also: test concentration not given here
# condition info: higher = more signal
Item-by-item account of z-score

Worked examples follow.
C=C(COC)/C(=C/C[C@@H](OC(C)=O)c1ccc(OCCO)cc1)c1cc(C(=O)OC)ccc1OC: -0.0182
CCOC(=O)C[C@H]1[C@H](OC(=O)c2ccc(C(=O)c3ccccc3)cc2)[C@@H](NC(=O)c2ccc(-c3ccccc3)cc2)c2cc(OCCCO)ccc2N1C(=O)c1ccccc1: 0.2
COC(=O)[C@@]1(Cc2ccc(OC)cc2)[C@H]2c3cc(C(=O)N(C)C)n(CCN4CNCC4=O)c3C[C@H]2CN1C(=O)c1ccccc1: -0.254
[N-]=[N+]=NCc1ccccc1C[C@]1(C(=O)NCC(O)CO)N=C(c2ccc(OCCCO)cc2)O[C@H]1c1ccccc1 (stereo partly specified): -1.25

Now for the compound whose z-score we want.
Request: Given O=C1C2C=CC(C(O)C3CCCCC3)N(Nc3ccc([N+](=O)[O-])cc3)C2C(=O)N1c1ccccc1 (stereo unspecified) , state its recorded z-score.
Result: -0.0914

====

# test details: basal RPMI8226 mitochondrial membrane potential changes, profiling panel, cell-based, JC-1 fluorescence, 24 h, 100 nL compound (AID 1169); also: test concentration not given here
# condition info: RPMI8226 myeloma, JC-1 mitochondrial potential fluorescence, higher = more signal
Listed here are compounds together with their documented z-score.
Lab note: write the figure by itself, no unit.

Example cases with answers are listed next.
O=C(c1ccccc1)N1Cc2ccccc2[C@@H]2OC(c3ccc(OCCCO)cc3)=N[C@]2(Cc2ccccc2)C1=O: -1.11
CN(C)CCCC[C@@H]1NC(=O)[C@H]2C[C@@H](C(=O)NCCCCCNC(=O)CS)[C@@H](c3cccc(OCCO)c3)N2C1=O: 0.0925
CC(C)C[C@@H]1NC(=O)[C@H]2C[C@@H](C(=O)NCCCCCCN(C)C)[C@@H](c3ccc(O)cc3)N2C1=O: 0.664

Proceed to the following item.
Request: So what does the record say about z-score for NCCCCCNC(=O)[C@@H]1C[C@@H]2C(=O)NCC(=O)N2[C@@H]1c1ccc(O)cc1 ?
Result: -0.0558

====

# tgt: Focal adhesion kinase 1 (Homo sapiens)
# test details: small-molecule microarray binders of FAK, primary screen, biochemical, 635/667 nm fluorescence, BSA, DTT (AID 1130);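 also: composite of spot emission at 667 nm and signal to noise over triplicate slides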
# condition info: PTK2 binding, 635 nm fluorescence, higher = more signal
endpoint name: composite z-score
Would you mind answering with just the numeric figure?

Recorded results for 8 compounds are shown here.
C=CCN1C(=O)[C@]2(O[C@H](CCO)[C@@H]([Si](C)(C)c3ccc(OC)cc3)[C@@H]2C)c2cc(N3CCCCC3=O)ccc21: 0.162
[N-]=[N+]=NCc1ccccc1C[C@@]1(C(=O)NCC(O)CO)N=C(c2ccc(OCCCO)cc2)O[C@@H]1c1ccccc1N=[N+]=[N-] (stereo not given in full): 1.22
CN(C)C(=O)[C@@]1(Cc2ccccc2CN=[N+]=[N-])N=C(c2ccc(OCCCO)cc2)O[C@H]1c1ccccc1: 0.995
[N-]=[N+]=NCc1ccccc1[C@@H]1OC(c2ccc(OCCCO)cc2)=N[C@]1(CCS(=O)(=O)c1ccccc1)C(=O)NCCN1CCOCC1: 0.261
O=C1C2C=CC(C(O)c3ccc(F)cc3)N(Nc3ccccc3F)C2C(=O)N1c1ccccc1 (stereo not given): 0.198
COC(=O)[C@@]1(Cc2ccc(F)cc2)[C@H]2c3cc(C(=O)N(C)C)n(Cc4ccc(S(C)(=O)=O)cc4)c3C[C@H]2CN1C(=O)c1ccccc1: 1.16
NC(=O)[C@@H]1[C@H]2C(=O)O[C@H](c3ccccc3)[C@H](c3ccccc3)N2[C@H](c2ccc(O)cc2)[C@@]12C(=O)Nc1ccc(C#CC3(O)CCCCCC3)cc12: -0.205
CN(C)CCCCCCNC(=O)[C@@H]1C[C@@H]2C(=O)N[C@@H](CCCCN)C(=O)N2[C@@H]1c1cccc(OCCO)c1: 2.31

Request: Please state recorded composite z-score (tested on Focal adhesion kinase 1 (Homo sapiens)) of CCCN1C(=O)[C@]2(CCS(=O)(=O)c3ccccc3)N=C(c3ccc(OCCCO)cc3)O[C@@H]2c2ccccc21
Result: 0.554

Request: Same read-out for COCCOC(=O)N1C(=O)[C@@]2(c3cc(C#CC4=CCCCC4)ccc31)[C@H](C(N)=O)[C@H]1C(=O)O[C@H](c3ccccc3)[C@H](c3ccccc3)N1[C@@H]2c1ccc(OCCO)cc1 ?
Result: 0.797

Request: Now consider NCCCCCNC(=O)[C@@H]1C[C@@H]2C(=O)N[C@@H](Cc3ccccc3)C(=O)N2[C@@H]1c1cccc(OCCO)c1 .
Result: 0.123

Request: Please do the same for COC(=O)[C@@]1(Cc2ccc(F)cc2)[C@H]2c3cc(C(=O)N(C)C)n(Cc4nc5ccccc5[nH]4)c3C[C@H]2CN1C(=O)c1ccccc1 as well.
Result: 0.187

Request: Same for C#CCN(Cc1ccccc1Br)C(/C=C/c1ccccc1)CO (stereo not given)
Result: -0.102

Request: Same question for CC(C)C[C@@H]1NC(=O)[C@H]2C[C@@H](C(=O)NCCCCCCN(C)C)[C@@H](c3ccc(O)cc3)N2C1=O please.
Result: 0.34

Request: Another compound to check: C=C(/C(=C/C[C@@H](OC(C)=O)c1ccc(OCCO)cc1)c1cnc2ccccc2c1)C(C)C
Result: 0.166
